These entries and their values trace back to paper PMC13053910.

- System Name: CBX8 ChD (Homo sapiens)
- Construct: CBX chromodomain constructs (addgene plasmid #25158 (CBX2), and #62514 (CBX8, provided by Cheryl Arrowsmith)); 6His; host or cells: E. coli (BL21 CodonPlus RIL or Rosetta 2)
- Sequence (Q9HC52 11-69 limits assumed): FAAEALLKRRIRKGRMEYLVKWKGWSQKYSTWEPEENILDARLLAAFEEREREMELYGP
- Measurement Description: Time-dependent fluorescence polarization displacement assay, CBX8 ChD
- Type: binding
- Particulars: Figure 5d; CBX8 ChD 2 µM, SW2_113 probe 100 nM, PBS pH 7; read-out: IC50 at time 0

# Given Smiles, Endpoint Unit, IC50
measured = [
    ("CC[C@H](C)[C@H](NC(=O)[C@@H](NC(=O)c1ccc(Oc2ccccc2)cc1)C1CCCC1)C(=O)N[C@@H](CCCCN(CC)CCCCCCN1CCN=CC1=O)C(=O)N[C@@H](CO)C(N)=O", "µM", 9.9),
]
